Tested on: AncSZ
measurement.notes: phosphorylation enrichment, bacterial display (enrichment ratio); higher = better substrate or ligand; peptides without Tyr show the background
measurement.type: phosphorylation enrichment

Incoming: Give a short answer stating reported phosphorylation enrichment for VYYGSYSCPYG [NKAP_Y104_R106C] .
Outgoing: 2.87

----------
System: c-Src
measurement.notes: phosphorylation enrichment, bacterial display (enrichment ratio); higher = better substrate or ligand; peptides without Tyr show the background
Binned phosphorylation enrichment; ranges: class 0: < 0.5; class 1: ≥ 0.5 and < 1; class 2: ≥ 1

>  <macromolecule.sequence>
PNLILYGDFRQ [MYH7_Y715_R712L]

>  <class.assignment>
class 2

$$$$
>  <macromolecule.sequence>
ALVFLSFCIIF [SIGLEC12_Y494_Y494S]

>  <class.assignment>
class 0

$$$$
>  <macromolecule.sequence>
LFHENYNAGTF [CFI_Y421_I416L_YF]

>  <class.assignment>
class 1

$$$$

Incoming: Category of RAILLYEYVGK [NATD1_Y45_V42I] , please.
Outgoing: class 2

Incoming: Category of DPLLTYRFPPN [LMNA_Y481_K486N] , please.
Outgoing: class 1

Incoming: Category of NKYVAYIESQG [KDM4B_Y34] , please.
Outgoing: class 0

Incoming: Category of RQQEDYLLFKQ [RARRES1_Y159_YF] , please.
Outgoing: class 1

Incoming: Category of RDLHTYIMPAH [PNMT_Y256_R254H] , please.
Outgoing: class 1

Incoming: Category of ITLKGYNLSNS [GNPTAB_Y728_K732N] , please.
Outgoing: class 0

Incoming: Category of ALIKAYDKAVA [SMN1_Y43] , please.
Outgoing: class 0

Incoming: Category of TQNAVYSAANY [DDX5_Y535_G533A] , please.
Outgoing: class 2

Incoming: Category of PEADKYHLTFA [FGG_Y300_R301H_YF] , please.
Outgoing: class 2

Incoming: Category of IGEGTYRTVFK [CDK5_Y15_G16R] , please.
Outgoing: class 1

Incoming: Category of VYLGAYDRFLP [SLC22A5_Y486] , please.
Outgoing: class 2

Incoming: Category of GKPENYRRLDI [VHL_Y175_V170G] , please.
Outgoing: class 0

----------
study.system: Grb2 SH2 (UniProt P62993)
Sequence (P62993 whole entry, looked up): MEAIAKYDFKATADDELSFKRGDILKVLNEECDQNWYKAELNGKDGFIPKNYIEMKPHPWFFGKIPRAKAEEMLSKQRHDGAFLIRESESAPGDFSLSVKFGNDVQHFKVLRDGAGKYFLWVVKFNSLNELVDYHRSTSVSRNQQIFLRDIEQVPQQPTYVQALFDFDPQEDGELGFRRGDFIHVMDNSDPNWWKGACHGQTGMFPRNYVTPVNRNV
measurement.notes: SH2 binding enrichment of the phosphorylated peptide, bacterial display (enrichment ratio); higher = better substrate or ligand; peptides without Tyr show the background
Catalogue of SH2 binding enrichment readings, one per entry.
// return just the number, without any unit appended

>  <macromolecule.sequence>
AVLSLYASGRN [ACTA1_Y145_T150N]

>  <quantitative.readout>
0.867

$$$$
>  <macromolecule.sequence>
TKDTFYKQPVF [GBA_Y451_M455V]

>  <quantitative.readout>
0.905

$$$$
>  <macromolecule.sequence>
KSVLVYRNGDP [DCDC2_Y22]

>  <quantitative.readout>
0.972

$$$$

Incoming: Find the measured SH2 binding enrichment of KASGKYFAMKI [AKT3_Y173_YF] with Grb2 SH2 (UniProt P62993) as test system.
Outgoing: 1.37

Incoming: Find the measured SH2 binding enrichment of QSPQLYKQMCI [DARS1_Y253] with Grb2 SH2 (UniProt P62993) as test system.
Outgoing: 0.904

Incoming: Find the measured SH2 binding enrichment of EMTAEYTCTRK [ACAD9_Y325_A326T] with Grb2 SH2 (UniProt P62993) as test system.
Outgoing: 0.632

Incoming: Find the measured SH2 binding enrichment of FTNRNYDLDYD [MYC_Y12] with Grb2 SH2 (UniProt P62993) as test system.
Outgoing: 0.799

Incoming: Find the measured SH2 binding enrichment of VKKKLYEEIDQ [CYP17A1_Y329] with Grb2 SH2 (UniProt P62993) as test system.
Outgoing: 0.758

Incoming: Find the measured SH2 binding enrichment of NWGSPYKSNGC [ZNF347_Y261] with Grb2 SH2 (UniProt P62993) as test system.
Outgoing: 0.819

Incoming: Find the measured SH2 binding enrichment of SGEKPYKCSVC [ZNF543_Y283_E287V] with Grb2 SH2 (UniProt P62993) as test system.
Outgoing: 1.02

Incoming: Find the measured SH2 binding enrichment of ETCLAYREKRI [TEKT1_Y118] with Grb2 SH2 (UniProt P62993) as test system.
Outgoing: 0.948

Incoming: Find the measured SH2 binding enrichment of NKYVAYIESQG [KDM4B_Y34] with Grb2 SH2 (UniProt P62993) as test system.
Outgoing: 0.755

Incoming: Find the measured SH2 binding enrichment of LKGQVDILGRE [ASS1_Y359_Y359D] with Grb2 SH2 (UniProt P62993) as test system.
Outgoing: 1.01

Incoming: Find the measured SH2 binding enrichment of IMAYFYMCDSA [CASD1_Y382_R386S] with Grb2 SH2 (UniProt P62993) as test system.
Outgoing: 1.08

Incoming: Find the measured SH2 binding enrichment of GRTNICKNKKD [SLC26A3_Y520_Y520C] with Grb2 SH2 (UniProt P62993) as test system.
Outgoing: 1.79

Incoming: Find the measured SH2 binding enrichment of PSPMPYAFCQM [FOXL2_Y215_S217F] with Grb2 SH2 (UniProt P62993) as test system.
Outgoing: 0.64

Incoming: Find the measured SH2 binding enrichment of KGRAGYTTVAV [RET_Y752] with Grb2 SH2 (UniProt P62993) as test system.
Outgoing: 1.47

Incoming: Find the measured SH2 binding enrichment of ETLLYYGCRRS [POR_Y564] with Grb2 SH2 (UniProt P62993) as test system.
Outgoing: 0.712

Incoming: Find the measured SH2 binding enrichment of GEFFRYLAEVA [YWHAG_Y133_D129E_YF] with Grb2 SH2 (UniProt P62993) as test system.
Outgoing: 0.924

----------
study.system: Jak2 (UniProt O60674)
Sequence (O60674 whole entry, looked up): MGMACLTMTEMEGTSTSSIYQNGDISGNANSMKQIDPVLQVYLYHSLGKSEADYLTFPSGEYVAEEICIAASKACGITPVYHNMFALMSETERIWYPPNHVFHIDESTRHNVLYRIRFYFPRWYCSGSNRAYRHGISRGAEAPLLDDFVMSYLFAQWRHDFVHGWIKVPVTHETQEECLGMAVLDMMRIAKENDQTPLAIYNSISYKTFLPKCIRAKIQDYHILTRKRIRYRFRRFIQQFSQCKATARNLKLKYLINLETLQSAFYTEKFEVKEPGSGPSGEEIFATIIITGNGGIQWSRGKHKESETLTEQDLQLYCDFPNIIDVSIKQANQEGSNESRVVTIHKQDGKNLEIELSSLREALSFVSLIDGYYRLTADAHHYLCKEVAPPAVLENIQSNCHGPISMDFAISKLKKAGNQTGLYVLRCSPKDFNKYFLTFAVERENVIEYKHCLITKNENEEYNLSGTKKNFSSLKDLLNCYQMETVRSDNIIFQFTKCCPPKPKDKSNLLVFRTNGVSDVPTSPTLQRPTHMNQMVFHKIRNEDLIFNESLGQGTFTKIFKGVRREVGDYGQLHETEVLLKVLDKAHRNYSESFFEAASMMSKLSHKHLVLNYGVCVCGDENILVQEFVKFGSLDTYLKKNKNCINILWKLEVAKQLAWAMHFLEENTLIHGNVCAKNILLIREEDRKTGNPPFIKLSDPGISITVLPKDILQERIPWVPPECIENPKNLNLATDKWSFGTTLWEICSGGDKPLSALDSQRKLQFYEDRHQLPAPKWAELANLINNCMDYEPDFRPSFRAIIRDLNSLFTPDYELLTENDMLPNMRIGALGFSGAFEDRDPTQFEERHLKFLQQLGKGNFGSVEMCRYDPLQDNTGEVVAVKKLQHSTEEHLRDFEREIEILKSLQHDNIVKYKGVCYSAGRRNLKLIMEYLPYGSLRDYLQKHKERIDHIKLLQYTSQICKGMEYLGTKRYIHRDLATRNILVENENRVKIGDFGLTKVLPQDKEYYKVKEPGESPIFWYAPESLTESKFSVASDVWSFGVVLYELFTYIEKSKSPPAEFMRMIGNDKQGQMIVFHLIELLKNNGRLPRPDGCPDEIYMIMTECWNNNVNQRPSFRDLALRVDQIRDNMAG
measurement.notes: phosphorylation enrichment, bacterial display (enrichment ratio); higher = better substrate or ligand; peptides without Tyr show the background
Binned phosphorylation enrichment; ranges: low bracket: < 0.7; middle bracket: ≥ 0.7 and < 1; high bracket: ≥ 1

Some entries whose results are on file:
>  <macromolecule.sequence>
GVRLFYRVRES [RB1_Y454_M457R_YF]

>  <class.assignment>
high bracket

$$$$
>  <macromolecule.sequence>
SNKELYEKYMI

>  <class.assignment>
low bracket

$$$$
>  <macromolecule.sequence>
FEEDSYVKRSQ [RET_Y905_YF]

>  <class.assignment>
middle bracket

$$$$
>  <macromolecule.sequence>
KGIQLYDTPYE [SHB_Y297]

>  <class.assignment>
high bracket

$$$$
>  <macromolecule.sequence>
DTYDPYLDIAL [USP36_Y268_V271I]

>  <class.assignment>
high bracket

$$$$
>  <macromolecule.sequence>
PESCFYKESWL [IQGAP2_Y630_L629F]

>  <class.assignment>
middle bracket

$$$$
>  <macromolecule.sequence>
RNVFFYSFLLK [PTEN_Y178_Y174N_YF]

>  <class.assignment>
high bracket

$$$$
>  <macromolecule.sequence>
RNDQVYQPLRD [CD3D_Y149]

>  <class.assignment>
low bracket

$$$$

Incoming: Category of ATARPYRPYII [LRP5_Y1528] , please.
Outgoing: low bracket

Incoming: Category of IKNSGYISRFL [EIF2AK3_Y585_YF] , please.
Outgoing: low bracket

Incoming: Category of TTKAKYKTPTF [PLD2_Y573_YF] , please.
Outgoing: low bracket

Incoming: Category of DRLPSYLDKVR [KRT12_Y139_A137P] , please.
Outgoing: low bracket

Incoming: Category of WVYNHYRWIIW [BRCA2_Y2624] , please.
Outgoing: high bracket

Incoming: Category of EEKKKYYDAKI [CASP5_Y103_T106A] , please.
Outgoing: middle bracket

Incoming: Category of KDHPDYKYQAR [SOX10_Y171_P175A] , please.
Outgoing: low bracket

Incoming: Category of FDSPFYQDSLP [TSC1_Y508_R509Q] , please.
Outgoing: middle bracket

----------
Tested on: AncSZ
measurement.notes: phosphorylation enrichment, bacterial display (enrichment ratio); higher = better substrate or ligand; peptides without Tyr show the background
measurement.type: phosphorylation enrichment
// return just the number, without any unit appended

Incoming: Find the measured phosphorylation enrichment of PPNSPYMGSSP [KCNT1_Y740_I741M] with AncSZ as test system.
Outgoing: 1.01

Incoming: Find the measured phosphorylation enrichment of EVEFEYPFRLH [SYP_Y73] with AncSZ as test system.
Outgoing: 1

Incoming: Find the measured phosphorylation enrichment of SLTRLYVGENA [NLRP3_Y861] with AncSZ as test system.
Outgoing: 0.725

Incoming: Find the measured phosphorylation enrichment of QDRTFYERVRT [SPEN_Y633_S635R_YF] with AncSZ as test system.
Outgoing: 0.583

Incoming: Find the measured phosphorylation enrichment of GSRGKYFSGFR [ATM_Y332_S333F] with AncSZ as test system.
Outgoing: 0.547

Incoming: Find the measured phosphorylation enrichment of VKKKLYEEIDQ [CYP17A1_Y329] with AncSZ as test system.
Outgoing: 0.924

Incoming: Find the measured phosphorylation enrichment of HFVDEYDQTIE [KRAS_Y32_P34Q] with AncSZ as test system.
Outgoing: 2.79
